So I've got a bunch of compounds here, and I need their TGI values.
System: NCI-H226 lung
Test: NCI tumour cell line growth inhibition, 48 h

Field: example entries. Status: answers known.
>>> result("CC(=O)OCC1OC(n2cc(F)c(=O)[nH]c2=O)C(NC(=O)OCc2ccccc2)C(OC(C)=O)C1OC(C)=O (stereo not drawn)")
"> 100 µM"
>>> result("CN(CCCCCl)P(=O)(OCCS(=O)(=O)CC(NC(=O)CCC(N)C(=O)O)C(=O)NC(C(=O)O)c1ccccc1)OCC1OC(n2ccc(N)nc2=O)C(F)(F)C1O (stereo not drawn)")
"> 93.3 µM"

Pending compound:
Query (compound): CC1=Nc2c(ccc3c2C(=O)c2ccccc2C3=O)NC(c2cccc3c2CCC3)C1 (stereo not drawn) ; field requested: TGI
> 100 µM

----------
So I've got a bunch of molecules here, and I need their TGI values.
System: OVCAR-4 ovarian
Assay: NCI tumour cell line growth inhibition, 48 h

Field: example entries. Status: answers known.
>>> result("O=c1/c(=C/c2ccccc2[N+](=O)[O-])sc2nc3ccccc3n12")
"> 46.4 µM"
>>> result("COC(=O)C1C(O)CCC2CN3CCc4c([nH]c5ccccc45)C3CC21 (stereo not given)")
"> 100 µM"
>>> result("C=C1C(=O)OC2C/C(C)=C/CC/C(C)=C/CCC3(COC(C)=O)OC3CC12 (stereo not given)")
"46.5 µM"
>>> result("COC(CN(C(C)=O)C1CCC2(SCCS2)c2[nH]c3ccccc3c21)OC (stereo not given)")
"> 100 µM"
>>> result("c1cc2c(cc1NC1=NCCO1)OCO2")
"> 100 µM"

Could you report TGI for every entry in the following list?
1. COc1cc(F)c(F)c(Nc2ccc(I)cc2F)c1NS(=O)(=O)C1(C[C@H](O)CO)CC1
2. COc1cc(C(C)O)c(S(=O)(=O)CC(C)O)nn1 (stereo not given)
3. O=C(O)c1ccc(CI)cc1
4. N#Cc1ccccc1C(Cl)(Cl)c1cnccn1
5. O=C1c2ccccc2C(=O)c2cc(N=Nc3c(O)ccc4ccccc34)ccc21

["> 10 µM", "> 100 µM", "27.4 µM", "> 100 µM", "> 100 µM"]

----------
Test system: T-47D breast
Experiment: NCI tumour cell line growth inhibition, 48 h
Observable: TGI

>>> result("COC(=O)C1C(O)CCC2CN3CCc4c([nH]c5ccccc45)C3CC21 (stereo unspecified)")
"> 100 µM"
>>> result("Cc1ccccc1OC(C)C(=O)NN1C(=O)CSC1c1ccc(Cl)cc1 (stereo unspecified)")
"> 100 µM"
>>> result("O=C(O)c1ccc(NCn2nc(-c3ccccc3O)oc2=S)cc1")
"> 100 µM"
>>> result("FC(F)(c1ccc2ncccc2c1)c1nnc2ccc(-c3ccncc3)nn12")
"> 100 µM"
>>> result("CCCCCCCCCCCCCCCCCC1=NC(C)(C)CN1CC(C)O (stereo unspecified)")
"28 µM"

Pending compound:
Query (compound): "O=S(=O)(Nc1nc2ccccc2nc1Nc1ccc2ccccc2c1)c1ccccc1" ; field requested: TGI
> 100 µM

----------
Test system: A498 renal
Experiment: NCI tumour cell line growth inhibition, 48 h
So I've got a bunch of molecules here, and I need their TGI values.
Numbers only, in µM.

>>> numeric_result("COc1cc2nc(SCc3cc(OC)c(OC)c(OC)c3)n(Cc3ccccc3)c(=O)c2cc1OC")
7.87
>>> numeric_result("CCOC(=O)c1[nH]c(Br)c(-c2ccc(OC)c(OC)c2)c1Br")
0.194
>>> numeric_result("Cc1ncc(C(=O)Nc2ccc(CN3CCN(C)CC3)c(C(F)(F)F)c2)cc1C#Cc1cnc2cccnn12")
1.47
>>> numeric_result("COc1ccc(C2OC(=O)c3ccc4ccccc4c32)c(C)c1 (stereo not drawn)")
66.2
>>> numeric_result("C=CCC1CC(n2cc(C)c(=O)[nH]c2=O)OC1CO[Si](C)(C)C(C)(C)C (stereo not drawn)")
34.5
>>> numeric_result("O=C(O)CCS/C(=C\\C(SCCC(=O)O)c1ccc(Cl)cc1)c1ccc(Cl)cc1 (stereo not drawn)")
39
>>> numeric_result("O=C(/C=C/C12c3ccccc3C(c3ccccc31)C1C(=O)NC(=O)C12)c1ccc(Cl)cc1Cl (stereo not drawn)")
3.3
>>> numeric_result("CCC(O)c1ccc(Br)cc1NC(=O)c1cccc(Cl)c1 (stereo not drawn)")
54

Could you report TGI for every entry in the following list?
1. CCc1ccc(NC(=O)NC(=O)c2ccccc2[N+](=O)[O-])cc1Oc1ncc(Cl)cn1
2. O=c1c2cc(F)ccc2sc2c(N3CCNCC3)nc3ccc(F)cc3c12

9.1
3.09
